Recorded Kd values (substrate-binding protein FeuA (Bacillus subtilis)) are given below.
Numbers only, in nM.

# molecule, readout, result
data = [
    ("C[C@H]1OC(=O)[C@@H](NC(=O)CNC(=O)c2cccc([O-])c2[O-])[C@@H](C)OC(=O)[C@@H](NC(=O)CNC(=O)c2cccc([O-])c2[O-])[C@@H](C)OC(=O)[C@H]1NC(=O)CNC(=O)c1cccc([O-])c1[O-].[Fe+3] [[Fe^III(BB)]^3-]", "Kd", 15),
]

Below is a list of molecules. For each, state its recorded Kd.
1. O=C(N[C@@H]1COC(=O)[C@H](NC(=O)c2cccc([O-])c2[O-])COC(=O)[C@H](NC(=O)c2cccc([O-])c2[O-])COC1=O)c1cccc([O-])c1[O-].[Fe+3] [[Fe^III(D-Ent)]^3-]
2. O=C(N[C@H]1COC(=O)[C@@H](NC(=O)c2cccc([O-])c2[O-])COC(=O)[C@@H](NC(=O)c2cccc([O-])c2[O-])COC1=O)c1cccc([O-])c1[O-].[Fe+3] [[Fe^III(Ent)]^3-]

### Response
1. 10
2. 19

Just so you know, measured Kd for O=C(CNC(=O)c1cccc([O-])c1[O-])N[C@H]1COC(=O)[C@@H](NC(=O)CNC(=O)c2cccc([O-])c2[O-])COC(=O)[C@@H](NC(=O)CNC(=O)c2cccc([O-])c2[O-])COC1=O.[Fe+3] [[Fe^III(SGC)]^3-] came out at 52
